The values you see were collected from patent US11447445B2.

Test: Water solubility approximation
Format: physicochemical
Conditions: PBS with 0.01% Polysorbate 20, aqueous with cosolvent or surfactant or cyclodextrin, kinetic from dmso stock; PBS pH 7.4, 0.01% Polysorbate 20, 1% DMSO; precipitation at 650 nm; read-out: w.s. (water solubility)
Method: PBS at pH 7.4 with 0.01% Polysorbate 20 (Tween) was combined with 1% of a DMSO solution of the inquired compound in a 96-well transparent flat bottom microtiter plate. Precipitation of the compound was measured at 650 nm with a Tecan Infinite 200 (Tecan Group Ltd, Mannedorf, Switzerland).
# Lookup of reported solubility keyed by entry
Quantity name: solubility (µM)

[[record]]
compound = "CC(Cc1ccc(C(=O)NCc2ccccc2C(F)(F)F)cc1)C(=O)O (stereo not drawn) [Compound 17c]"
value = 500

[[record]]
compound = "O=C(O)/C=C/c1ccc(C(=O)NCc2ccccc2C(F)(F)F)cc1 [Compound 16d]"
value = 10

[[record]]
compound = "CCOC(=O)/C(C)=C/c1ccc(C(=O)NCc2ccccc2C(F)(F)F)cc1 [Compound 17a]"
value = 10

[[record]]
compound = "CCC/C(=C\\c1ccc(C(=O)NCc2ccccc2C(F)(F)F)cc1)C(=O)O [Compound 18d]"
value = 5

[[record]]
compound = "CCOC(=O)C(CC)Cc1ccc(C(=O)NCc2ccc(Cl)cc2)cc1 (stereo not drawn) [Compound 11b]"
value = 10

[[record]]
compound = "CCOC(=O)/C(=C/c1ccc(C(=O)NCc2ccc(Cl)cc2)cc1)CC [Compound 11a]"
value = 10

[[record]]
compound = "CCCC(Cc1ccc(C(=O)NCc2ccccc2C(F)(F)F)cc1)C(=O)OCC (stereo not drawn) [Compound 18b]"
value = 5

[[record]]
compound = "CCOC(=O)C(C)Cc1ccc(C(=O)NCc2ccccc2C(F)(F)F)cc1 (stereo not drawn) [Compound 17b]"
value = 10

[[record]]
compound = "CCOC(=O)C(Cc1ccc(C(=O)NCc2ccccc2C(F)(F)F)cc1)c1ccccc1 (stereo not drawn) [Compound 19b]"
value = 5

[[record]]
compound = "CCC(Cc1ccc(C(=O)NCc2ccccc2Br)cc1)C(=O)O (stereo not drawn)"
value = 500

[[record]]
compound = "CCCC(Cc1ccc(C(=O)NCc2ccccc2C(F)(F)F)cc1)C(=O)O (stereo not drawn) [Compound 18c]"
value = 500

[[record]]
compound = "CCOC(=O)C(CC)Cc1ccc(C(=O)NCc2ccccc2OC(F)(F)F)cc1 (stereo not drawn)"
value = 100

[[record]]
compound = "CCC(Cc1ccc(C(=O)NCc2ccc(Cl)cc2)cc1)C(=O)O (stereo not drawn) [Compound 11c]"
value = 500

[[record]]
compound = "CCOC(=O)/C(=C/c1ccc(C(=O)NCc2ccc(OC)cc2)cc1)CC [Compound 10a]"
value = 10

[[record]]
compound = "CC/C(=C\\c1ccc(C(=O)NCc2ccc(C(F)(F)F)cc2)cc1)C(=O)O"
value = 500

[[record]]
compound = "CCOC(=O)/C(=C/c1ccc(C(=O)NCc2ccccc2C(F)(F)F)cc1)c1ccccc1 [Compound 19a]"
value = 1

[[record]]
compound = "CCOC(=O)C(CC)Cc1ccc(C(=O)NCc2ccc(OC)cc2)cc1 (stereo not drawn) [Compound 10b]"
value = 10

[[record]]
compound = "CCOC(=O)/C(=C/c1ccc(C(=O)NCc2ccccc2OC(F)(F)F)cc1)CC"
value = 10

